Each recorded value in this set is attributed to patent US11566029B2.

target: CDK1/cycA1 (Homo sapiens, UniProt P06493); construct: purchased ProQinase GmbH; assay: In vitro kinase assay (PKLight luciferase ATP readout), CDK1; type: biochemical; conditions: ATP at Km; read-out: In vitro Kinase Inhibition CDK1 IC50
Sequence (P06493 whole entry): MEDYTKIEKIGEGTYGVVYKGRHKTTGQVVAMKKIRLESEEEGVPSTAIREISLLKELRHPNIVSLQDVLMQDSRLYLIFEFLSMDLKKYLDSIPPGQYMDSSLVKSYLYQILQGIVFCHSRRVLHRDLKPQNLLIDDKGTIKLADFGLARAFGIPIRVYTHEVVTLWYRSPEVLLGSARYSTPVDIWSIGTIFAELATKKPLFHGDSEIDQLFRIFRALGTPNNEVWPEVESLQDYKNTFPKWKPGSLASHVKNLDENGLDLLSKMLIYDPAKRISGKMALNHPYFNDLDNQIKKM
Sequence (P78396 whole entry partner): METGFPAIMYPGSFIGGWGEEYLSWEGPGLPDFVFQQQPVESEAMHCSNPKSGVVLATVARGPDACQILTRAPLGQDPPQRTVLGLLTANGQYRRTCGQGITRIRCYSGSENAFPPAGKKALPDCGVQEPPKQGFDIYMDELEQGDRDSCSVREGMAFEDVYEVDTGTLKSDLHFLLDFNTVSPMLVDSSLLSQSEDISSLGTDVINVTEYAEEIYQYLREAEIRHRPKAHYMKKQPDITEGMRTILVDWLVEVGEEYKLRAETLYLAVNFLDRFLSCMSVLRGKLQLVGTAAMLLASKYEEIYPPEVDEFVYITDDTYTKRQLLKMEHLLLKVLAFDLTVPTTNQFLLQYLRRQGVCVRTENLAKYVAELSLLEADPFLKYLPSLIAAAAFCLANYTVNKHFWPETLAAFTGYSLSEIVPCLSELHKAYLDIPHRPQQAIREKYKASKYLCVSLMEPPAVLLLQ
Structures can show the parent of a compound that is named as a salt.
observable: pIC50
Formally, pIC50 is defined as -log10 of the concentration c, with c in mol/L.

Worked cases, pIC50 given:
CC(C)c1cnn2c(NCc3ccccc3)cc(NCC3(CO)CCNC3)nc12 (racemic) [PPDA-018, hydrochloride]    7.39
CC(C)c1cnn2c(NCc3ccccc3)cc(N[C@H]3CNCC3O)nc12 (stereo in doubt) [PPDA-015, hydrochloride]    5.40
CC(C)c1cnn2c(Nc3csc4ccccc34)cc(NC[C@H]3CCNC[C@@H]3O)nc12 [PPDA-008]    5.53
CC(C)c1cnn2c(NCc3ccccc3)cc(N[C@H]3CNCC[C@@]3(O)CO)nc12 [PPDA-024]    6.07
CC(C)c1cnn2c(Nc3ccc(N4CCN(C)CC4)cc3)cc(NC[C@H]3CCNC[C@@H]3O)nc12 [PPDA-007, hydrochloride]    5.94

Let me know recorded pIC50 for CC(C)c1cnn2c(NCC3CCCCC3)cc(NC[C@H]3CCNC[C@@H]3O)nc12 [PPDA-004] , thanks. 5.74

// Input: CC(C)c1cnn2c(NCc3ccccc3Cl)cc(NC[C@@]3(CO)CCNC3)nc12 (racemic) [PPDA-021] . Output its pIC50 only. 6.75

Tell me measured pIC50 for CC(C)c1cnn2c(NCc3ccccc3Cl)cc(NCC3(O)CCNCC3)nc12 [PPDA-011] please. 6.84

Find the measured pIC50 of CC(C)c1cnn2c(NCc3ccccc3)cc(NC[C@]3(O)CCNC[C@H]3O)nc12 (racemic) [PPDA-002, hydrochloride] and report it. 5.86

Recall and state the measured pIC50 for CC(C)c1cnn2c(NCc3ccncc3)cc(NC[C@@]3(CO)CCNC3)nc12 (racemic) [PPDA-020] . 6.36

Name the recorded pIC50 of the item CC(C)c1cnn2c(NCc3ccccc3)cc(N[C@@H]3CNCC[C@]3(O)CO)nc12 [PPDA-025] in your answer. 6.55

Indicate its recorded pIC50; the compound in question is CO[C@@H]1CCNCC1Nc1cc(NCc2ccccc2)n2ncc(C(C)C)c2n1 (stereo partly drawn) [PPDA-023] 5.92
